Hey, just so you know, these numbers are from paper PMC7555349.

Recorded measurements of IC50, one per entry
System: Leishmania amazonensis intracellular amastigotes
experiment: Activity against intracellular amastigote in infected peritoneal macrophages, and selectivity index
Type: cell-based
recorded.conditions: Leishmania amazonensis, Peritoneal macrophage, in Mus musculus; L. amazonensis in BALB/c peritoneal macrophages; 24 h of treatment; read-out: IC50 Intracellular Amastigote
// return numeric value only (unit: µM, not printed)

// below: answered compounds
{"compound": "C#CCOc1cccc(OCc2cn(-c3ccccc3C=O)nn2)c1 [Compound 4]", "IC50 [µM]": 150}
{"compound": "Cc1ccc(S(=O)(=O)N/N=C/c2ccccc2-n2cc(COc3ccccc3)nn2)cc1 [Compound 5]", "IC50 [µM]": 32.3}
{"compound": "C(=N\\Nc1ccccc1)/c1ccccc1-n1cc(COc2ccccc2)nn1 [Compound 6]", "IC50 [µM]": 17.8}

Sure, the documented IC50 for O=Cc1ccccc1-n1cc(COc2cccc(OCc3cn(-c4ccccc4C=O)nn3)c2)nn1 [Compound 2] is 37.9

====

Recorded measurements of IC50, one per entry
Test system: Leishmania amazonensis promastigote
experiment: Activity against promastigote forms (MTT)
Assay type: cell-based
recorded.conditions: L. amazonensis promastigotes; 24 h of treatment per table title; MTT; read-out: IC50 Promastigote
// return numeric value only (unit: µM, not printed)

{"compound.string": "O=Cc1ccccc1-n1cc(COc2ccccc2)nn1", "assay.system": "Leishmania amazonensis promastigote", "recorded.result": 53.7}
{"compound.string": "O=Cc1ccccc1-n1cc(-c2ccccc2)nn1", "assay.system": "Leishmania amazonensis promastigote", "recorded.result": 63}
{"compound.string": "Cc1ccc(S(=O)(=O)N/N=C/c2ccccc2-n2cc(COc3ccccc3)nn2)cc1", "assay.system": "Leishmania amazonensis promastigote", "recorded.result": 8.81}
{"compound.string": "C#CCOc1cccc(OCc2cn(-c3ccccc3C=O)nn2)c1", "assay.system": "Leishmania amazonensis promastigote", "recorded.result": 15.7}

Sure, the documented IC50 for C(=N\Nc1ccccc1)/c1ccccc1-n1cc(COc2ccccc2)nn1 is 14.6

Sure, the documented IC50 for O=Cc1ccccc1-n1cc(COc2cccc(OCc3cn(-c4ccccc4C=O)nn3)c2)nn1 is 8.85

Sure, the documented IC50 for O=Cc1ccccc1-n1cc(COc2cccc(O)c2)nn1 is 50.9

====

Recorded measurements of pIC50, one per entry
Test system: Leishmania amazonensis promastigote
experiment: Activity against promastigote forms (MTT)
Format: cell-based
recorded.conditions: Leishmania amazonensis, 24 h, L. amazonensis promastigotes; 24 h of treatment per table title; MTT; read-out: IC50 Promastigote
pIC50: −log10 of the molar value.

{"compound.string": "O=Cc1ccccc1-n1cc(-c2ccccc2)nn1", "property.measured": "pIC50", "recorded.result": "< 4.30"}

Sure, the documented pIC50 for O=Cc1ccccc1-n1cc(COc2cccc(OCc3cn(-c4ccccc4C=O)nn3)c2)nn1 is > 5.00

Sure, the documented pIC50 for Cc1ccc(S(=O)(=O)N/N=C/c2ccccc2-n2cc(COc3ccccc3)nn2)cc1 is > 5.00

Sure, the documented pIC50 for C#CCOc1cccc(OCc2cn(-c3ccccc3C=O)nn2)c1 is ~4.82

====

Tested on: Leishmania amazonensis intracellular amastigotes
experiment: Activity against intracellular amastigote in infected peritoneal macrophages, and selectivity index
Assay type: cell-based
recorded.conditions: ratio of CC50 versus the IC50 for intracellular amastigotes
Recorded measurements of SI (selectivity index), one per entry
Provide a numeric answer; units are not to be included.

// below: answered compounds
{"compound.string": "O=Cc1ccccc1-n1cc(COc2cccc(OCc3cn(-c4ccccc4C=O)nn3)c2)nn1", "property.measured": "SI (selectivity index)", "recorded.result": 6.55}
{"compound.string": "C(=N\\Nc1ccccc1)/c1ccccc1-n1cc(COc2ccccc2)nn1", "property.measured": "SI (selectivity index)", "recorded.result": 30.81}
{"compound.string": "C#CCOc1cccc(OCc2cn(-c3ccccc3C=O)nn2)c1", "property.measured": "SI (selectivity index)", "recorded.result": 0.96}

Next up:
Sure, the documented SI (selectivity index) for Cc1ccc(S(=O)(=O)N/N=C/c2ccccc2-n2cc(COc3ccccc3)nn2)cc1 is 1.79
